Test: Inhibition of [3H]- epibatidine binding at the Nicotinic acetylcholine receptor alpha beta (nAChR) in male rat cerebral cortex
Type: tissue-based
measurement-kind: Ki (pM)
Numbers only, in pM.

Example entries begin here.
[
  {
    "compound": "Fc1ncc([C@H]2CC3CCC2N3)cc1Br (some centres undefined)",
    "measurement-kind": "Ki",
    "unit-abbreviation": "pM",
    "endpoint-value": 71
  },
  {
    "compound": "Fc1ncc([C@H]2CC3CCC2N3)cc1I (some centres undefined)",
    "measurement-kind": "Ki",
    "unit-abbreviation": "pM",
    "endpoint-value": 51
  },
  {
    "compound": "Nc1ncc([C@H]2CC3CCC2N3)cc1I (some centres undefined)",
    "measurement-kind": "Ki",
    "unit-abbreviation": "pM",
    "endpoint-value": 520
  },
  {
    "compound": "Oc1ncc([C@H]2CC3CCC2N3)cc1Br (some centres undefined)",
    "measurement-kind": "Ki",
    "unit-abbreviation": "pM",
    "endpoint-value": 14400
  },
  {
    "compound": "Brc1ccc([C@H]2CC3CCC2N3)cn1 (some centres undefined)",
    "measurement-kind": "Ki",
    "unit-abbreviation": "pM",
    "endpoint-value": 23
  }
]

Below are some compounds; for each one, tell me its Ki.
1. Fc1ncc([C@H]2CC3CCC2N3)cc1Cl (some centres undefined)
2. Clc1ncc(C2CC3CCC2N3)cc1I (centres undefined)
3. Fc1cc([C@H]2CC3CCC2N3)cnc1F (some centres undefined)
4. Nc1cc([C@H]2CC3CCC2N3)cnc1Cl (some centres undefined)

### Response
20
8
55
1

Each compound below has a recorded value; state its Ki.
1. Clc1cc([C@H]2CC3CCC2N3)cnc1Cl (some centres undefined)
2. Brc1cc([C@H]2CC3CCC2N3)cnc1I (some centres undefined)
3. Brc1cc([C@H]2CC3CCC2N3)cnc1Br (some centres undefined)
4. Fc1cc(C2CC3CCC2N3)cnc1Cl (centres undefined)
5. Ic1ccc(C2CC3CCC2N3)cn1 (centres undefined)
6. Fc1ccc(C2CC3CCC2N3)cn1 (centres undefined)
7. Clc1ncc([C@H]2CC3CCC2N3)cc1Br (some centres undefined)

### Response
1. 14
2. 27
3. 15
4. 25
5. 70
6. 27
7. 13

Origin of the recorded values: ChEMBL document CHEMBL1135630
